Biological target: T1, Rabbit skeletal myosin (rabbit)
T1 construct: mature; also called rabbit whole skeletal myosin; rabbit skeletal myosin S2
T1 sequence (Q28641 whole entry, chain 1 of 3): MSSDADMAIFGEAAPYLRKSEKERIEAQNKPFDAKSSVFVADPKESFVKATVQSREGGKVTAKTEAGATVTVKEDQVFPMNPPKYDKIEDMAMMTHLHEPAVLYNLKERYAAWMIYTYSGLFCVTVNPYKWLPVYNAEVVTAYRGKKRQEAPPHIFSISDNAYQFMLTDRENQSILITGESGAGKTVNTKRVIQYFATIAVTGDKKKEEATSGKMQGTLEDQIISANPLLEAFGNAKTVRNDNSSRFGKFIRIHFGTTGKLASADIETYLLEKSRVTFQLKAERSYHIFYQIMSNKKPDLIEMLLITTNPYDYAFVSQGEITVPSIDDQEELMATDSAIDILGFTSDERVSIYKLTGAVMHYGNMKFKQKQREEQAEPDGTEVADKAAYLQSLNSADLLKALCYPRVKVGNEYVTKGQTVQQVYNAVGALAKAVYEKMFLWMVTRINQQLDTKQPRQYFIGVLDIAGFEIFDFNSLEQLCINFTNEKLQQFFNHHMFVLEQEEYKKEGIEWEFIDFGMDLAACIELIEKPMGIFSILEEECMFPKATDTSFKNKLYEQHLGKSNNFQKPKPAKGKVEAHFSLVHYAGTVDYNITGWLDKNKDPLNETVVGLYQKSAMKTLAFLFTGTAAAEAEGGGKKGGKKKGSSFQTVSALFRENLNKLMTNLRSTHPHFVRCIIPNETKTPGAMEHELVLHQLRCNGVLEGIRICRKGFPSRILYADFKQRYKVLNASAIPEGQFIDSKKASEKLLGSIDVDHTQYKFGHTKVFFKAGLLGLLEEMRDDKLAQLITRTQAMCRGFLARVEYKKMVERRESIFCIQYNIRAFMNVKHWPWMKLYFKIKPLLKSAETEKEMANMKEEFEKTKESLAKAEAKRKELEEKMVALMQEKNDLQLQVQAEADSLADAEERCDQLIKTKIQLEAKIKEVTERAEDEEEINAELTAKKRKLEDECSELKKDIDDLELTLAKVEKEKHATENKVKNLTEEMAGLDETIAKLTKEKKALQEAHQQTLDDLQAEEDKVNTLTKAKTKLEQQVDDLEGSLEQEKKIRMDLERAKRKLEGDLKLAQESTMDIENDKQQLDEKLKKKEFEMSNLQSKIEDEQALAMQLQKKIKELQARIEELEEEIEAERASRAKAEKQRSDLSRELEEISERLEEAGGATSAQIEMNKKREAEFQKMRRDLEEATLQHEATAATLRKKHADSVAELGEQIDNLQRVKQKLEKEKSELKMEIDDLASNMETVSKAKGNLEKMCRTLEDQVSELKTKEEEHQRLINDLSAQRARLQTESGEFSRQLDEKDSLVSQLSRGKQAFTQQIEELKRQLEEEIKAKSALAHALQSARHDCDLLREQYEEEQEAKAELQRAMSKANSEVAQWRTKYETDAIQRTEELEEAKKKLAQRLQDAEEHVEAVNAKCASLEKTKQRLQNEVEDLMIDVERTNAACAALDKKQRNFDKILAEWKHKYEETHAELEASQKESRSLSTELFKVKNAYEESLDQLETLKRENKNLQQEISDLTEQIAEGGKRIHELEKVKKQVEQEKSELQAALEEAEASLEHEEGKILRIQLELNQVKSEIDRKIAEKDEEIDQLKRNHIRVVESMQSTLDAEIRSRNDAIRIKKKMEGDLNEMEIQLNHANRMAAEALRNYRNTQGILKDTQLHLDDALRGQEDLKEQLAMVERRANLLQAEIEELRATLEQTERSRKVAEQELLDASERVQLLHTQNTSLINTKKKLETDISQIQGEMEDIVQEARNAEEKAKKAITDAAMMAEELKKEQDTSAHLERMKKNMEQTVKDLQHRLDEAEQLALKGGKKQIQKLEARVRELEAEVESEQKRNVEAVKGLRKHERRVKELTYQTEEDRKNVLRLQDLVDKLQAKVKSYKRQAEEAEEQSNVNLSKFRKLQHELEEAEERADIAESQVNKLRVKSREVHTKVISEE
T1 sequence (P02602 2-192, chain 2 of 3, further chain): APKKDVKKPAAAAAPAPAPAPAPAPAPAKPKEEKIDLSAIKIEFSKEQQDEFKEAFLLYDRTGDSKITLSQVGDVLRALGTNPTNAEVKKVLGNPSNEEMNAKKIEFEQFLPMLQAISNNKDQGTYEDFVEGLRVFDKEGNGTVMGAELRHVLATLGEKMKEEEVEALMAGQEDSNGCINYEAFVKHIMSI
T1 sequence (P02608 2-170, chain 3 of 3, further chain): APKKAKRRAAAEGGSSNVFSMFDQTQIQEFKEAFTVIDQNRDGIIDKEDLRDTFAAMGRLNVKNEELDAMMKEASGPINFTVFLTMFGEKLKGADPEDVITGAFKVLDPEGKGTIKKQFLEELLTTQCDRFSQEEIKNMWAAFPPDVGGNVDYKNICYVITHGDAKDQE
Assay: 'previously calculated Kd values'; row stands under the IC-50 head for stabilizers, read as unlabeled stabilizer; method and source of the myosin not stated

[
  {
    "BINDER": "KKKKKKKKFKAKKKKKK (also called stabilizing peptide; unlabeled stabilizer) [Stabilizer peptide]",
    "MEASURE UNIT": "nM",
    "Kd": 6
  }
]
